- ASSAYED SYSTEM: platelet activating factor (PAF) receptor (Homo sapiens, UniProt P25105)
- Construct: endogenous in cells
- Sequence (P25105 whole entry): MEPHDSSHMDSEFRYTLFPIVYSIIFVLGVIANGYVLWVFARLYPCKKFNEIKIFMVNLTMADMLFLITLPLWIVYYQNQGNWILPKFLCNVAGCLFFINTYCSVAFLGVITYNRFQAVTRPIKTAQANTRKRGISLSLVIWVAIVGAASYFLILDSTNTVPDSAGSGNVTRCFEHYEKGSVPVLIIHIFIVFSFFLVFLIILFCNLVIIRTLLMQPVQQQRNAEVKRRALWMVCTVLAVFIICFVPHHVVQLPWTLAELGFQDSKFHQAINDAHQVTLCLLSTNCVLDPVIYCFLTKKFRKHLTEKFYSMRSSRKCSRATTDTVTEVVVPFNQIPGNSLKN
- MEASUREMENT PROTOCOL: Human Platelet PAF Receptor Assay test (test A): inhibition of specific binding of [3H]-PAF to platelets
MEASUREMENT NAME: IC50 (nM)
Return type: number; implicit unit nM.

* COc1cc(CCc2ccc(C3=Cc4ccsc4C4=NCCN34)cc2)cc(OC)c1OC | 100

For the next question, use this compound.
input: Report IC50 on platelet activating factor (PAF) receptor (Homo sapiens, UniProt P25105) for this entry: COc1cc(CCc2ccc(C3=Cc4oc(C)cc4C4=NCCN34)cc2)cc(OC)c1OC
output: 70
